Values from paper PMC8333062

Assay: Pharmacokinetic studies in mice (LC-MS/MS)
Assay type: in vivo, B6D2F1 mice
Details: male, B6D2F1, mouse, plasma, iv; i.v. 10 mg kg^−1; read-out: plasma exposure, AUC
Method: Blood and brain tissue were collected following euthanasia at the scheduled time points of 5, 30 min, 1, 4, and 8 h following iv dosing and of 30 min, 1, 4, and 8 h following po dosing. Brain samples were immediately flash frozen in liquid nitrogen following collection and stored at −80 °C until analysis. […]
Measure: AUC (µM·h)

compound="CC(C)NCCCn1c(Sc2cc3c(cc2I)OCO3)nc2c(N)ncnc21 [Compound 1, reference compound]" measure=AUC value_measured=3.47
compound="CC(C)(C)CNCCn1c(Sc2cc3c(cc2I)OCO3)nc2c(N)ncnc21 [Compound 85]" measure=AUC value_measured=3.52

====

Molecular target: HSP90 pools in JNPL3 (AD transgenic) mouse brain lysate
Assay: Fluorescence polarization (FP) competitive binding, cy3B-GM
Settings: read-out: FP relative affinity
pEC50: −log10 of the molar value.
Lab note: anything with pEC50 at or over 7 counts as criterion met; the rest go in criterion not met.

compound="CC(C)NCCCn1c(Sc2cc3c(cc2I)OCO3)nc2c(N)ncnc21 [Compound 1, reference compound]" target_entity="HSP90 pools in JNPL3 (AD transgenic) mouse brain lysate" assigned_category="criterion met"
compound=Nc1nc(F)nc2c1nc(Cc1cc3c(cc1I)OCO3)n2CCCN1CCOCC1 target_entity="HSP90 pools in JNPL3 (AD transgenic) mouse brain lysate" assigned_category="criterion not met"
compound=CC(C)(C)CNCCn1c(Sc2cc3c(cc2I)OCO3)nc2c(N)ncnc21 target_entity="HSP90 pools in JNPL3 (AD transgenic) mouse brain lysate" assigned_category="criterion met"
compound=Nc1nc(F)nc2c1nc(Cc1cc3c(cc1I)OCO3)n2CCCN1CCN(CCO)CC1 target_entity="HSP90 pools in JNPL3 (AD transgenic) mouse brain lysate" assigned_category="criterion not met"

====

Target: HSP90 pools in JNPL3 (AD transgenic) mouse brain lysate
Assay: Fluorescence polarization (FP) competitive binding, cy3B-GM
Conditions: displacement of cy3B-GM, 24 h, 4 °C; mean±SD, n=3; read-out: FP relative affinity
pEC50: −log10 of the molar value.
Measure: pEC50

smiles_code=CC(C)NCCCn1c(Sc2cc3c(cc2-c2ccc(N(C)C)cc2)OCO3)nc2c(N)ncnc21 value_measured=5.86
smiles_code=CCc1cc2c(cc1Cc1nc3c(N)nc(F)nc3n1CCCNC(C)C)OCO2 value_measured=6.09
smiles_code=CC(C)NCCCn1c(Sc2cc3c(cc2-c2ccc(Br)cc2)OCO3)nc2c(N)ncnc21 value_measured=6.14
smiles_code=CCN(C)CCCn1c(Cc2cc3c(cc2I)OCO3)nc2c(N)nc(F)nc21 value_measured=7.35
smiles_code=CC(C)NCCCn1c(Sc2cc3ccccc3cc2I)nc2c(N)ncnc21 value_measured=7.01
smiles_code=Nc1nc(F)nc2c1nc(Cc1cc3c(cc1I)OCO3)n2CCCN(CCO)C1CCCCC1 value_measured=7.62
smiles_code=C=Cc1cc2c(cc1Cc1nc3c(N)nc(F)nc3n1CCCNC(C)C)OCO2 value_measured=6.84
smiles_code=CC(C)NCCCn1c(Cc2cc3c(cc2C#N)OCO3)nc2c(N)nc(F)nc21 value_measured=6.66
